Sourced from the Human Domainome abundance scans (Beltran et al. 2025)

B1: KAT8 regulatory NSL complex subunit 2, residues 28 to 91; numbered along this chain, Q9H9L4 (parent)
chain: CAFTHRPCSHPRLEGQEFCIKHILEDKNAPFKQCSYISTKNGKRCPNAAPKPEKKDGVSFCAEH

variants of: B1; assay: abundance fitness (aPCA) (normalised: wild type 0, dead -1); higher = more abundant; growth selection in yeast, the domain comes from the species named; settings: Homo sapiens
measuredEndpoint: abundance fitness
Reply: number alone, nothing else.

// worked examples, abundance fitness included
{"variantSpec": "C34P", "abundance fitness": -0.346}
{"variantSpec": "H64T", "abundance fitness": -0.33}
{"variantSpec": "C8Q", "abundance fitness": -0.832}

Form field: reported abundance fitness of `R44H`
-0.051
